Consider the following compounds; for each one, report its pIC50.
# test_target: human Nav1.7 (Homo sapiens, UniProt Q15858)
# Sequence (Q15858 whole entry): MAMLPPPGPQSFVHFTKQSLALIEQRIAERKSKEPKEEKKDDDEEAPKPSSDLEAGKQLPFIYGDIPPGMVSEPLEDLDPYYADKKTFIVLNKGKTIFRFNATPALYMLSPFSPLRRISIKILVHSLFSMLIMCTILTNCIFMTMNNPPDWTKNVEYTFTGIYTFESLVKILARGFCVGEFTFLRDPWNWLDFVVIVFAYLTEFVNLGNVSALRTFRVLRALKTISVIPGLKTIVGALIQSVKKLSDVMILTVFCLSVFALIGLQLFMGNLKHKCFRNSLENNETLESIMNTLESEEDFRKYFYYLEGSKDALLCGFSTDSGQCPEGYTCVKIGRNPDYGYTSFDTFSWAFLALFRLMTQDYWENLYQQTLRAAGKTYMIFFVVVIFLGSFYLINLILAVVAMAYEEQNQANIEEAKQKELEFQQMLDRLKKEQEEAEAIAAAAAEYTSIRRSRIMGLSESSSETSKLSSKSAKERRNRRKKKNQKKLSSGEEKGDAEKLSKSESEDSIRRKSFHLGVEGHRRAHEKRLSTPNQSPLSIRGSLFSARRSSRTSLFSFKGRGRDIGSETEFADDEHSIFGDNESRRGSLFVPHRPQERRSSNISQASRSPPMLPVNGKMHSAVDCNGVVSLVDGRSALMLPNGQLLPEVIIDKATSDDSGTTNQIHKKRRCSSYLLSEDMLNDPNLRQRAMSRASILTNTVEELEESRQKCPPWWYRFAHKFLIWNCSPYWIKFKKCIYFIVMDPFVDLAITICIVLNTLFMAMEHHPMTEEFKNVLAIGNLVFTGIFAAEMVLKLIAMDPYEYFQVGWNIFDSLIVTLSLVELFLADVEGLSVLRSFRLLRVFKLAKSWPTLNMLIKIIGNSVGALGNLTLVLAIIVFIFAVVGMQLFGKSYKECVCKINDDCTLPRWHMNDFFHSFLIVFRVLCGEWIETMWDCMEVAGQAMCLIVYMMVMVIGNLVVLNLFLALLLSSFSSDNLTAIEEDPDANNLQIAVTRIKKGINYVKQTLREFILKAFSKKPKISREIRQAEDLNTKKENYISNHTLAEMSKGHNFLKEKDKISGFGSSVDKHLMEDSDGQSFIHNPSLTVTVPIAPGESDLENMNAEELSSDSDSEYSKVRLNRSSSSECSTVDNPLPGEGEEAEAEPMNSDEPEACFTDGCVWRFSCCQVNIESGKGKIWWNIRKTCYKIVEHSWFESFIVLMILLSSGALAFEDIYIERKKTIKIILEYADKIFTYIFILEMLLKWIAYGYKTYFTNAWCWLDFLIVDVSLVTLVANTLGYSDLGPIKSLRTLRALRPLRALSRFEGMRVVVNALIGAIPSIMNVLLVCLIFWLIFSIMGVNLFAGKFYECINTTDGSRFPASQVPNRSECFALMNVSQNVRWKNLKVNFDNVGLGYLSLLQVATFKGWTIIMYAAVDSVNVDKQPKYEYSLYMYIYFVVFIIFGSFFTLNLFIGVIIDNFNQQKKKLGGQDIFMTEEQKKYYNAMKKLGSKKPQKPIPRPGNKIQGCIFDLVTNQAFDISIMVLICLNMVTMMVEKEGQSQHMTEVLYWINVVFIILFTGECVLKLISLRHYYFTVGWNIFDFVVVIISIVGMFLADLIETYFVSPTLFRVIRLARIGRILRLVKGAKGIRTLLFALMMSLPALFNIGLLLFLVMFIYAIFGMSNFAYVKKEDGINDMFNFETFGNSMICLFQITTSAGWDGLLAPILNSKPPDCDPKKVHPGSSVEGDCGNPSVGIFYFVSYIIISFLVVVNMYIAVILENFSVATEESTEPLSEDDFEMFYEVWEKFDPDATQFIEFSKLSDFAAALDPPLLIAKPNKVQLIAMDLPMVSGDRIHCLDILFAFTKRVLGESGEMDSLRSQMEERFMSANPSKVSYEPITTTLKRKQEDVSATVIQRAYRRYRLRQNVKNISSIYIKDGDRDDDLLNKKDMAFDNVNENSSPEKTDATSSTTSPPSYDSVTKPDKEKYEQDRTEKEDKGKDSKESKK
# method_notes: PatchXpress automated patch-clamp, inactivated state block of Nav1.7
# particulars: channels stably expressed in HEK 293 cells, 22° C., read-out: potency for the Nav 1.7 sodium ion channel (as measured by PatchXpress)
# Protocol: Compounds were tested on human Nav1.7 and Nav1.5 channels stably expressed in HEK 293 cells. Activity toward Nav 1.7 and Nav 1.5 channels was assessed using the following assay methodology. Sodium Current Measurements on the PatchXpress 7000®: […] For all electrophysiology experiments, offline analysis was used to correct for current rundown and to determine percent inhibition as a function of drug concentration. IC50 values were determined by fitting to the Hill equation.
Value format note: pIC50 is -log10 of concentration (mol/L); just state the number.

Entry C[C@@H]1CC[C@@]2(CNc3cc(F)c(S(=O)(=O)Nc4nccs4)cc3Cl)CCCN12 (single isomer, unassigned) has what pIC50?
8.22

Entry O=S(=O)(Nc1ncc(F)s1)c1ccc(NCC23CCCN2CC2(CC2)C3)c(C(F)(F)F)c1 (single isomer, unassigned) [Ex13-12-A] has what pIC50?
7.66

Entry CC1CCC2(CNc3ccc(S(=O)(=O)Nc4ncc(F)s4)cc3Cl)CCCN12 (single isomer, unassigned) [Ex11-12-A] has what pIC50?
7.66

Entry "O=S(=O)(Nc1nccs1)c1cc(F)c(NCC23CCCN2CCC3)cc1Cl" has what pIC50?
6.89

Entry CC1CCC2(CNc3ccc(S(=O)(=O)Nc4nccs4)cc3C(F)(F)F)CCCN12 (single isomer, unassigned) [Ex11-10-B] has what pIC50?
7.40

Entry "O=S(=O)(Nc1cccnn1)c1cc(Cl)c(NCC23CCCN2CCC3)cc1F" has what pIC50?
6.00

Entry O=S(=O)(Nc1nccs1)c1cc(Cl)c(NCC23CCCCN2CCC3)cc1F (single isomer, unassigned) [Ex17-7-B] has what pIC50?
6.73

Entry O=S(=O)(Nc1nccs1)c1cc(Cl)c(NC[C@]23CCCN2CC2(CC2)C3)cc1F (single isomer, unassigned) has what pIC50?
7.80

Entry O=S(=O)(Nc1ncc(Cl)s1)c1cc(Cl)c(NCC23CCCN2CC(F)(F)C3)cc1F (racemic) has what pIC50?
5.89

Entry "N#Cc1cc(S(=O)(=O)Nc2ncc(Cl)s2)ccc1NCC12CCCN1CCC2" has what pIC50?
6.82

Entry CC(Nc1cc(F)c(S(=O)(=O)Nc2nccs2)cc1Cl)C12CCCN1CCC2 (single isomer, unassigned) [Ex5-9] has what pIC50?
5.96

Entry "O=S(=O)(Nc1cccc(F)n1)c1cc(F)c(NCC23CCCN2CCC3)cc1F" has what pIC50?
6.46

Entry O=S(=O)(Nc1nccs1)c1cc(Cl)c(NC[C@@]23CCCN2[C@H](CO)CC3)cc1F (single isomer, unassigned) has what pIC50?
7.55

Entry "CCc1cc(S(=O)(=O)Nc2ncc(F)s2)c(F)cc1NCC12CCCN1CCC2" has what pIC50?
8.30

Entry CC1CN2CCCC2(CNc2ccc(S(=O)(=O)Nc3nccs3)cc2Cl)C1 (stereo not drawn) has what pIC50?
8.30

----------
# test_target: human Nav1.5 (Homo sapiens, UniProt Q14524)
# Construct: expressed in transfected cells
# Sequence (Q14524 whole entry): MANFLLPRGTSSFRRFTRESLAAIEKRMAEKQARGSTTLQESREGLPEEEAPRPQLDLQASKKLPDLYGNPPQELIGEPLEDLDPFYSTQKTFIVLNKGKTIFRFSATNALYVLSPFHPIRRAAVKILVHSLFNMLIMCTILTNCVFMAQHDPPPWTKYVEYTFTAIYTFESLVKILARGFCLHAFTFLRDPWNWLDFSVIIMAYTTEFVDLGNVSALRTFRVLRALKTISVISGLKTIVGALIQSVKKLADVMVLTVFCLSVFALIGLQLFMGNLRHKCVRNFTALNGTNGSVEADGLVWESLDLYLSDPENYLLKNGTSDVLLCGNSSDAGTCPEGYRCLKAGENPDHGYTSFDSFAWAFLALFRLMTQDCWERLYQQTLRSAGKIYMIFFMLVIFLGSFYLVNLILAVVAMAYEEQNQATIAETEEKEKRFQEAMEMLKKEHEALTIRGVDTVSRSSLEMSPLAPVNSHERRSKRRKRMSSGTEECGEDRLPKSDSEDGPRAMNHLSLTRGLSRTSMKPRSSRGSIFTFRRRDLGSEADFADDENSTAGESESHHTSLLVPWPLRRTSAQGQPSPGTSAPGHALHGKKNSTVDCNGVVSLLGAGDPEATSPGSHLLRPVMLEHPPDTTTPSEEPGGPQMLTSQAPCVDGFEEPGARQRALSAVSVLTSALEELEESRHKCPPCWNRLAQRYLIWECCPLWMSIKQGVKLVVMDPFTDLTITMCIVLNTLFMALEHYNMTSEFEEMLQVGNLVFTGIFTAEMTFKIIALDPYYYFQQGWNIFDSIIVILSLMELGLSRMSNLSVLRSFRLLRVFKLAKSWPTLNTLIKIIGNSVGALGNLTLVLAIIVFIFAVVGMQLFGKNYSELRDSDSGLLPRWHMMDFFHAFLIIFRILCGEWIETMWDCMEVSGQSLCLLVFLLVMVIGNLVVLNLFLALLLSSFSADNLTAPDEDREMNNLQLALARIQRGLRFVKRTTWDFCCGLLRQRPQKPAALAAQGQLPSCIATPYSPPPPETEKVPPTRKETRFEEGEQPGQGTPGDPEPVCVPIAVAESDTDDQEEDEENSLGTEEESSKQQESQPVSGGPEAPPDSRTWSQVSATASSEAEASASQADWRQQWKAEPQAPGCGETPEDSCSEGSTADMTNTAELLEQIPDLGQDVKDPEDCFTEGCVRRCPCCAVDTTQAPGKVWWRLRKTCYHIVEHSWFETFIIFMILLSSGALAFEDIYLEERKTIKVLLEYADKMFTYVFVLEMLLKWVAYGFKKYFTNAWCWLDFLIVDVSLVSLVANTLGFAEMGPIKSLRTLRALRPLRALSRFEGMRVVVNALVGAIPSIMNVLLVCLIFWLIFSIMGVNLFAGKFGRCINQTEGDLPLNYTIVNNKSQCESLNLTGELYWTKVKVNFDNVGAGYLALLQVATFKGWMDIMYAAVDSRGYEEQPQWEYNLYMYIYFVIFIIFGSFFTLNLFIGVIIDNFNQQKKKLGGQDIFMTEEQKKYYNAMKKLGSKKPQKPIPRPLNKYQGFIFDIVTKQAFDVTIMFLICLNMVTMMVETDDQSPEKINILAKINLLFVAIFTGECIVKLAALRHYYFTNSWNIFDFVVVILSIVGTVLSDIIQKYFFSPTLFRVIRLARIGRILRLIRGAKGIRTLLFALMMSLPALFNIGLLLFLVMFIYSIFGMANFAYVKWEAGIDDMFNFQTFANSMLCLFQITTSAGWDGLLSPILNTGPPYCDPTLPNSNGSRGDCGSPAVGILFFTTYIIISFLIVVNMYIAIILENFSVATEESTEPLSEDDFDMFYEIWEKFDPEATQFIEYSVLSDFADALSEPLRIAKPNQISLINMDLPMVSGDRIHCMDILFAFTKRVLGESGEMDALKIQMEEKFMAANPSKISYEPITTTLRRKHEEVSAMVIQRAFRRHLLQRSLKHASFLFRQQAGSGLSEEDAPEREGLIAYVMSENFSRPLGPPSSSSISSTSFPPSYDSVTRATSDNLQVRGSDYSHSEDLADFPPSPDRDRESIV
# method_notes: PatchXpress automated patch-clamp, inactivated state block of Nav1.5 (selectivity)
# Format: cell-based
# particulars: determined by PatchXpress measurement, HEK 293 cells
readout: ratio of Nav1.7 potency:Nav 1.5 potency
API doc: respond with a numeric literal and nothing else, no unit.

Entry "N#Cc1cc(S(=O)(=O)Nc2ncc(Cl)s2)ccc1NCC12CCCN1CCC2" has what ratio of Nav1.7 potency:Nav 1.5 potency?
199

Entry "Cc1cc(NCC23CCCN2CCC3)c(Cl)cc1S(=O)(=O)Nc1nccs1" has what ratio of Nav1.7 potency:Nav 1.5 potency?
163

Entry O=S(=O)(Nc1nccs1)c1cc(Cl)c(NCC23CCCN2C(CF)CC3)cc1F (racemic) has what ratio of Nav1.7 potency:Nav 1.5 potency?
509

Entry COc1ccc(CC2CN3CCCC3(CNc3cc(F)c(S(=O)(=O)Nc4ncc(F)s4)cc3Cl)C2)cc1 (single isomer, unassigned) [Ex15-12-A] has what ratio of Nav1.7 potency:Nav 1.5 potency?
282
